Would you kindly list pKi for each of these compounds?
- target-or-test-system: Enoyl-[acyl-carrier-protein] reductase [NADPH] FabI (Staphylococcus aureus, UniProt Q6GI75)
- Sequence (Q6GI75 whole entry): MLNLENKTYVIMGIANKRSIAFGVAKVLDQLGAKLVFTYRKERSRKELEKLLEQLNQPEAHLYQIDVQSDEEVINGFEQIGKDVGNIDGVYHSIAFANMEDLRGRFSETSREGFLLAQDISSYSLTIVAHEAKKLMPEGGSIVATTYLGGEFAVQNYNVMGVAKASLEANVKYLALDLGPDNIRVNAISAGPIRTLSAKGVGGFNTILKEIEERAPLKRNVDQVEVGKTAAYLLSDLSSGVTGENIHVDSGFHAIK
Bear in mind: pKi is minus log10 of a mol/L concentration; give just that figure.

Could you tell me which pKi is on file for COc1ccccc1C1CCN(C(=O)Cc2ccccc2F)C1 (racemic) ?
5.77

Could you tell me which pKi is on file for CC(=O)Nc1ccc(/C=C/C(=O)N2CCC(c3ccccc3)C2)cn1 (racemic) ?
6.40

Could you tell me which pKi is on file for O=C(Cc1cccc(F)c1F)N1CCC(c2ccc3c(c2)OCO3)C1 (racemic) ?
5.70

Could you tell me which pKi is on file for O=C(Cc1ccccc1Cl)N1CCC(c2ccccn2)C1 (racemic) ?
5.17

Could you tell me which pKi is on file for O=C(Cc1c(F)cccc1F)N1CCC(c2ccc3c(c2)OCO3)C1 (racemic) ?
6.05

Could you tell me which pKi is on file for O=C(Cc1ccccc1Cl)N1CCC(c2ccccc2)C1 (racemic) ?
5.40

Could you tell me which pKi is on file for O=C(Cc1c(F)cccc1F)N1CCC(c2ccccc2)C1 (racemic) ?
6.15
